Attribution: patent US6413517B1

Measured IC50, listed per entry.
- system name: DRB1*0405 (DR4w15) (Homo sapiens, UniProt P01903+P01911, A100R/A169T/D86S/F76Y/I96L/K127E/L162R/M171V/N62H/P40V/Q125Y/R42H/S133A/S149N/S66Y/V115G/V209L/W38E)
- Construct: Epstein-Barr virus (EBV) transformed homozygous cell lines were used as sources; endogenous in cells; host or cells: KT3 (EBV-transformed homozygous B cell line)
- test method notes: biochemical
- Assay type: binding
- conditions: read-out: Binding Capacity (IC 50% nM) Other Alleles DR4w15
quantity measured: IC50

INSERT INTO assay_data (molecule, assay_result) VALUES
  ('CC[C@H](C)[C@H](N)C(=O)N[C@@H](CCCCN)C(=O)N[C@@H](CC(C)C)C(=O)N1CCC[C@H]1C(=O)N[C@H](C(=O)N[C@H](C(=O)N[C@@H](CC(C)C)C(=O)N[C@@H](C)C(=O)N[C@@H](Cc1ccccc1)C(=O)N[C@@H](C)C(=O)N[C@H](C(=O)N[C@@H](CS)C(=O)N[C@@H](Cc1ccccc1)C(=O)N[C@@H](CC(C)C)C(=O)N[C@H](C(=O)N1CCC[C@H]1C(=O)O)[C@@H](C)CC)[C@@H](C)O)[C@@H](C)CC)[C@@H](C)CC [Peptide 1136.12]', '> 1000 nM'),
  ('CC[C@H](C)[C@H](NC(=O)[C@H](CO)NC(=O)[C@H](CO)NC(=O)[C@H](CC(N)=O)NC(=O)[C@@H](NC(=O)[C@@H](NC(=O)[C@H](CC(N)=O)NC(=O)[C@@H](N)Cc1ccccc1)C(C)C)C(C)C)C(=O)NCC(=O)N[C@@H](CC(C)C)C(=O)N[C@H](C(=O)N[C@@H](CCSC)C(=O)N[C@H](C(=O)N[C@@H](CC(C)C)C(=O)N[C@@H](CO)C(=O)O)C(C)C)[C@@H](C)CC [Peptide 27.384]', '> 1000 nM');

* * *

Recorded IC50 for the following sequences
- system name: DRB1*0802 (DR8w2) (Homo sapiens, UniProt P01903+P01911, A100R/A103L/A169T/F76Y/H45Y/I96F/K41T/L162R/M171V/P40S/Q125H/Q178H/Q39Y/Q99D/R218S/R42G/S66Y/V115G/W38E)
- Construct: Epstein-Barr virus (EBV) transformed homozygous cell lines were used as sources; endogenous in cells; host or cells: OLL (EBV-transformed homozygous B cell line)
- test method notes: biochemical
- Format: binding
- conditions: Binding Capacity (IC50% nM) DR8w2
No end group written: not given here.
quantity measured: IC50 (nM)

INSERT INTO results (seq_text, censor_symbol, assay_result) VALUES
  ('GPPTALRSFGFAFGYM [Peptide 1136.29]', '=', 2970),
  ('QEIDPLSYNYIPVNSN [Peptide 1136.55]', '>', 10000),
  ('RVYQEPQVSPPQRAET [Peptide 1136.59.01a]', '>', 10000),
  ('WLFPRFKFVWVTYASW [Peptide 1136.44.01]', '=', 6360),
  ('LAAIIFLFGPPTALRS [Peptide 1136.28]', '=', 7540),
  ('LFHYYFLSEKAPGSTV [Peptide 1136.04]', '=', 55),
  ('LWWSTMYLTHHYFVDL [Peptide 1136.46]', '>', 10000);

* * *

Here, each record is paired with measured IC50 data.
- system name: DRB1*0301 (DR3w17) (Homo sapiens, UniProt P01903+P01911, A100K/A102G/A103R/A169T/F55Y/I96L/K41T/L162R/M171V/P40S/Q125H/Q178H/Q39Y/R42S/S66N/T106N/T262R/W38E/Y61H)
- test method notes: biochemical
- conditions: Binding Capacity (IC50% nM) DR3
No end group written: not given here.
quantity measured: IC50

INSERT INTO assay_data (seq_text, quantity_measured, assay_result) VALUES
  ('LWWSTMYLTHHYFVDL [Peptide 1136.46]', 'IC50', '> 10000 nM'),
  ('QEIDPLSYNYIPVNSN [Peptide 1136.55]', 'IC50', '> 10000 nM'),
  ('LFHYYFLSEKAPGSTV [Peptide 1136.04]', 'IC50', '> 10000 nM'),
  ('LAAIIFLFGPPTALRS [Peptide 1136.28]', 'IC50', '> 10000 nM'),
  ('WLFPRFKFVWVTYASW [Peptide 1136.44.01]', 'IC50', '> 10000 nM'),
  ('RVYQEPQVSPPQRAET [Peptide 1136.59.01a]', 'IC50', '> 10000 nM'),
  ('GPPTALRSFGFAFGYM [Peptide 1136.29]', 'IC50', '> 10000 nM');

* * *

- system name: DRB1*0701 (DR7) (Homo sapiens, UniProt P01903+P01911, A100R/A102G/A103Q/D57E/D86V/E43K/F76Y/K127E/L162R/M171V/P40G/Q125H/Q99D/R33Q/R42Y/R54Q/S133A/S66F/T210M/V115G/Y107V/Y59L/Y89S)
- Construct: Epstein-Barr virus (EBV) transformed homozygous cell lines were used as sources; endogenous in cells; host or cells: PITOUT (EBV-transformed homozygous B cell line)
- test method notes: biochemical
- Format: binding
- conditions: Binding Capacity (IC 50% nM) DR1,4,7 DR7
No end group written: not given here.
quantity measured: IC50

INSERT INTO assay_data (seq_text, assay_result) VALUES
  ('GPPTALRSFGFAFGYM [Peptide 1136.29]', '< 1000 nM');

* * *

The reader will find reported IC50 values listed item by item below.
- system name: DRB1*0901 (DR9) (Homo sapiens, UniProt P01903+P01911, A100R/A103E/D57H/D86V/F55Y/F60I/F76Y/I96F/K127E/L162R/M171V/P40D/Q125H/Q99R/R33Q/R42F/S133A/S66N/T210M/V115G/W38K/Y107V/Y59G/Y89S)
- Construct: Epstein-Barr virus (EBV) transformed homozygous cell lines were used as sources; endogenous in cells
- test method notes: biochemical
- Assay type: binding
- conditions: Binding Capacity (IC 50% nM) Other Alleles DR9
quantity measured: IC50

INSERT INTO assay_data (compound, assay_result) VALUES
  ('CC[C@H](C)[C@H](N)C(=O)N1CCC[C@H]1C(=O)N[C@@H](CCC(N)=O)C(=O)N[C@@H](CCC(=O)O)C(=O)N[C@@H](Cc1c[nH]c2ccccc12)C(=O)N[C@@H](CCCCN)C(=O)N1CCC[C@H]1C(=O)N[C@@H](C)C(=O)N[C@H](C(=O)N[C@H](C(=O)N[C@H](C(=O)N[C@@H](CCCCN)C(=O)N[C@H](C(=O)N[C@@H](CC(C)C)C(=O)N1CCC[C@H]1C(=O)N[C@@H](C)C(=O)O)C(C)C)C(C)C)[C@@H](C)O)[C@@H](C)CC [Peptide 1136.21]', '< 1000 nM'),
  ('CC(C)C[C@H](NC(=O)[C@H](CC(C)C)NC(=O)CNC(=O)[C@H](C)NC(=O)[C@H](CC(C)C)NC(=O)[C@@H](NC(=O)[C@H](CO)NC(=O)[C@@H](NC(=O)[C@H](C)NC(=O)[C@H](CC(C)C)NC(=O)[C@H](CCCCN)NC(=O)[C@H](Cc1ccc(O)cc1)NC(=O)[C@H](CCCCN)NC(=O)[C@H](CO)NC(=O)[C@@H](N)CCCCN)[C@@H](C)O)C(C)C)C(=O)O [Peptide 1188.16]', '< 1000 nM'),
  ('CC(C)[C@H](NC(=O)[C@H](CO)NC(=O)[C@@H](NC(=O)[C@H](C)NC(=O)[C@H](CO)NC(=O)[C@H](CO)NC(=O)[C@H](C)NC(=O)[C@H](C)NC(=O)[C@H](Cc1ccc(O)cc1)NC(=O)[C@@H](NC(=O)[C@H](CO)NC(=O)CNC(=O)[C@H](CCC(N)=O)NC(=O)[C@@H]1CCCN1C(=O)[C@@H](N)CCC(=O)O)[C@@H](C)O)[C@@H](C)O)C(=O)N[C@@H](CC(=O)O)C(=O)O [Peptide 1136.71]', '< 1000 nM');

* * *

- system name: DRB1*0101 (DR1) (Homo sapiens, UniProt P01903+P01911, A100R/D57E/F55L/F60I/F76Y/I96L/L162R/M171V/P40L/Q125E/R42F/V115G/Y59C)
- Construct: Epstein-Barr virus (EBV) transformed homozygous cell lines were used as sources; endogenous in cells; host or cells: LG2 (EBV-transformed homozygous B cell line)
- test method notes: biochemical
- Assay type: binding
- conditions: Binding Capacity (IC50% nM) DR1
No end group written: not given here.
quantity measured: log10(IC50) (log10 of the value in nM)

INSERT INTO measurements (seq_text, assay_result) VALUES
  ('LFHYYFLSEKAPGSTV [Peptide 1136.04]', 1.38),
  ('GPPTALRSFGFAFGYM [Peptide 1136.29]', 1.51),
  ('LAAIIFLFGPPTALRS [Peptide 1136.28]', -0.64),
  ('WLFPRFKFVWVTYASW [Peptide 1136.44.01]', 2.72),
  ('RVYQEPQVSPPQRAET [Peptide 1136.59.01a]', 2.11);
